- System: SK-ES-1
- METHOD_SUMMARY: relative viability vs DMSO control (72 h) (fraction); higher = more viable cells
- COND: 0.00017 µM
Counter-ions that a name gives are not always drawn.
READOUT_TYPE: relative viability
Hey, just send me the number, nothing else.

Reported relative viability, compound CC(C)(C)c1cc(NC(=O)Nc2ccc(-c3cn4c(n3)sc3cc(OCCN5CCOCC5)ccc34)cc2)no1 [Quizartinib] : ____
0.995

Now try Cc1nc(NC(=O)N2CCC[C@H]2C(N)=O)sc1-c1ccnc(C(C)(C)C(F)(F)F)c1 [Alpelisib] .
1.02

Now try COc1cccc2c1C(=O)c1c(O)c3c(c(O)c1C2=O)C[C@@](O)(C(=O)CO)C[C@@H]3O[C@H]1C[C@H](N)[C@H](O)[C@H](C)O1 [Doxorubicin Hydrochloride] .
0.999

Now try CN1CCC(COc2cnc(-c3cccc(Cn4nc(-c5cccc(C#N)c5)ccc4=O)c3)nc2)CC1 [Tepotinib] .
0.997

Now try Cc1cc(C)c(/C=C2\C(=O)Nc3ccccc32)[nH]1 [Semaxanib] .
0.972
